tested on: HT29; test: NCI SRB growth inhibition (single dose 10 µM / five-dose); type: cell-based, human; details: Homo sapiens, HT-29; HT29 (Colon cancer), 10 µM; read-out: GI%
Exercise: for every item that follows, state its recorded inhibition at 10 µM.

Prompt: Name the recorded inhibition at 10 µM for O=C(NN=Cc1ccccc1O)c1ccc2[nH]c(-c3ccc(Cl)cc3)nc2c1 [8o] .
Completion: > 100%

Prompt: Cool, now COc1cccc(C=NNC(=O)c2ccc3[nH]c(-c4ccc(Cl)cc4)nc3c2)c1O [8r]
Completion: > 100%

Prompt: Cool, now COc1ccc(-c2nc3cc(C(=O)NN=Cc4ccc(OC)c(O)c4)ccc3[nH]2)cc1 [8l]
Completion: > 100%

Prompt: Cool, now COc1ccc(-c2nc3cc(C(=O)NN=Cc4ccccc4O)ccc3[nH]2)cc1 [8h]
Completion: > 100%

Prompt: Cool, now COc1cc(C=NNC(=O)c2ccc3[nH]c(-c4ccc(Cl)cc4)nc3c2)cc(OC)c1OC [8u]
Completion: > 100%
